Target Of Assay: Proteinase-activated receptor 1 (Homo sapiens)
Assay Notes: Antagonist activity at PAR1 expressed in CHO cells assessed as inhibition of SFLLR-induced intracellular calcium release at 10 uM
Type: functional, cell-based
Measured Property: inhibition (%)

| Molecule | Measured Property | Quantitative Result |
| --- | --- | --- |
| CCOC(c1ccc(Cl)cc1)C(SC(C)(C)C)n1cnnc1 (stereo not drawn) | inhibition | 34 |
| CCOC(c1ccc(Cl)cc1)C(CC(C)(C)C)n1ccnc1 (stereo not drawn) | inhibition | 74 |
| CCOC(c1ccc(Cl)cc1)C(SC(C)(C)C)n1cnc(C)c1C (stereo not drawn) | inhibition | 64 |
| CCOC(c1ccc(Cl)cc1)C(n1ccnc1)[S+]([O-])C(C)(C)C (stereo not drawn) | inhibition | 15 |
| CCCCOC(c1ccc(Cl)cc1)C(SC(C)(C)C)n1ccnc1 (stereo not drawn) | inhibition | 33 |
| CCCCSC(C(OCC)c1ccc(Cl)cc1)n1ccnc1 (stereo not drawn) | inhibition | 76 |
| CCOC(c1ccc(Cl)cc1)C(SC(C)(C)C)n1cncn1 (stereo not drawn) | inhibition | 99 |
| CCOC(c1ccccc1Cl)C(SC(C)(C)C)n1cnc(C)c1 (stereo not drawn) | inhibition | 100 |
| CCOC(c1ccccc1[N+](=O)[O-])C(SC(C)(C)C)n1ccnc1 (stereo not drawn) | inhibition | 33 |
| COC(c1ccc(Cl)cc1)C(SC(C)(C)C)n1ccnc1 (stereo not drawn) | inhibition | 95 |
| CC(C)(C)SC(C(OCc1ccccc1)c1ccc(Cl)cc1)n1ccnc1 (stereo not drawn) | inhibition | 23 |
| CCOC(c1ccc(C(=O)OC)cc1)C(SC(C)(C)C)n1ccnc1 (stereo not drawn) | inhibition | 37 |
| CCOC(c1ccc(Cl)cc1)C(SC(C)(C)C)n1ccnc1 (stereo not drawn) | inhibition | 99 |
| CCOC(c1ccc2sccc2c1)C(SC(C)(C)C)n1ccnc1 (stereo not drawn) | inhibition | 98 |
| CCOC(c1ccc(Cl)cc1)C(OC(C)(C)C)n1ccnc1 (stereo not drawn) | inhibition | 85 |
| CCOC(c1ccc(Cl)cc1)C(SC(C)(C)C)n1cnc(Cl)c1 (stereo not drawn) | inhibition | 96 |
| CCOC(c1cccc(Cl)c1)C(SC(C)(C)C)n1cnc(C)c1 (stereo not drawn) | inhibition | 100 |
| CCOC(c1ccccc1)C(SC(C)(C)C)n1ccnc1 (stereo not drawn) | inhibition | 92 |
| COC(c1ccc(Cl)cc1)C(SC(C)(C)C)n1cnc(C)c1 (stereo not drawn) | inhibition | 96 |
| CCOC(c1ccc(Cl)cc1Cl)C(OC(C)(C)C)n1cnc(C)c1 (stereo not drawn) | inhibition | 98 |
| CCCOC(c1ccc(Cl)c(Cl)c1)C(OC(C)(C)C)n1ccnc1 (stereo not drawn) | inhibition | 93 |
| CCCOC(c1ccc(Cl)cc1)C(SC(C)(C)C)n1ccnc1 (stereo not drawn) | inhibition | 96 |
| CCOC(c1ccc(Cl)cc1)C(SC(C)(C)C)n1ccnc1C (stereo not drawn) | inhibition | 63 |

====

The entries below come with measured remaining at 1 h values attached.
Assay Notes: Metabolic stability in human liver microsomes assessed as parent compound remaining after 60 mins
Assay type: ADME, Microsome
Assay Context: read-out: Stability
Measured Property: remaining at 1 h (%)

| Compound | Quantitative Result |
| --- | --- |
| CCCOC(c1ccc(Br)cc1)C(SC(C)(C)C)n1cnc(C)c1 (centres undefined) | 23 |
| CCOC(c1ccc(Cl)cc1)C(OC(C)(C)C)n1ccnc1 (centres undefined) | 74 |
| CCCOC(c1ccc(Cl)c(Cl)c1)C(OC(C)(C)C)n1cnc(C)c1 (centres undefined) | 23 |
| CCOC(c1ccc(Cl)cc1)C(CC(C)(C)C)n1ccnc1 (centres undefined) | 57 |
| CCOC(c1ccc(Cl)cc1)C(n1ccnc1)S(=O)(=O)C(C)(C)C (centres undefined) | 35 |
| CCCOC(c1ccc(Cl)cc1Cl)C(SC(C)(C)C)n1cnc(C)c1 (centres undefined) | 28 |
| CCOC(c1ccc(Cl)cc1Cl)C(OC(C)(C)C)n1cnc(C)c1 (centres undefined) | 57 |
| CCCOC(c1ccc(Cl)cc1)C(SC(C)(C)C)n1cnc(C)c1 (centres undefined) | 28 |
| CCOC(c1ccc(Cl)cc1)C(n1ccnc1)[S+]([O-])C(C)(C)C (centres undefined) | 59 |

Where do these numbers come from? They come from ChEMBL document CHEMBL1159068.
